System: Nucleic Acid
Experiment: Thermal denaturation in alternating poly(dG-dC)-poly(dG-dC) homopolymer (GC)
Type: nucleic-acid assay
Please mark TRUE if the recorded Tm is equal to or greater than 5 °C, and FALSE if it falls below.

>  <SMILES NOTATION>
C/C(=C(/C)c1nc2cc(C(=N)N)ccc2[nH]1)c1nc2cc(C(=N)N)ccc2[nH]1

>  <CATEGORY>
FALSE

$$$$
>  <SMILES NOTATION>
N=C(N)c1ccc2[nH]c(/C=C/c3nc4cc(C(=N)N)ccc4[nH]3)nc2c1

>  <CATEGORY>
TRUE

$$$$
>  <SMILES NOTATION>
c1cc2[nH]c(Cc3nc4cc(C5=NCCN5)ccc4[nH]3)nc2cc1C1=NCCN1

>  <CATEGORY>
FALSE

$$$$
>  <SMILES NOTATION>
CC(C)NC(=N)c1ccc2[nH]c(/C=C/c3nc4cc(C(=N)NC(C)C)ccc4[nH]3)nc2c1

>  <CATEGORY>
TRUE

$$$$

Query: Is Tm at least 5 °C? Consider N=C(N)c1ccc2c(ccn2Cc2ccc(Cn3ccc4cc(C(=N)N)ccc43)cc2)c1
Response: TRUE

Query: Is Tm at least 5 °C? Consider O=[N+]([O-])c1ccc2[nH]c(CCc3nc4cc([N+](=O)[O-])ccc4[nH]3)nc2c1
Response: FALSE

Query: Is Tm at least 5 °C? Consider N=C(N)c1ccc2c(ccn2CCCCCCn2ccc3cc(C(=N)N)ccc32)c1
Response: TRUE

Query: Is Tm at least 5 °C? Consider c1cc2[nH]c(CCCc3nc4cc(C5=NCCN5)ccc4[nH]3)nc2cc1C1=NCCN1
Response: FALSE
